Task for the reader: assign each of the following compounds its reported GI50.
- Tested on: CAKI-1 renal
- Method: NCI tumour cell line growth inhibition, 48 h

Input: Entry under review: Clc1ccc(COC(Cn2ccnc2)c2ccc(Cl)cc2Cl)c(Cl)c1 (stereo unspecified) . Reported GI50?
Output: 3.18 µM

Input: // query: COc1cc2c(cc1OC)-c1ncc3cc(OC)c(OC)c(OC)c3c1C2
Output: 20.5 µM

Input: Now the same for O=C1c2ccccc2-c2c1c1ccc([N+](=O)[O-])cc1c(=O)n2CCCn1ccnc1
Output: 0.172 µM

Input: Query COc1c(Cl)[c]([Hg][O]C(C)=O)c(NCC(C)=O)c(OC)[c]1[Hg][O]C(C)=O next
Output: 20.2 µM

Input: Another compound: CC(C)c1cc(C(=O)[O-])c(O)c(C(C)C)c1.CC(C)c1cc(C(=O)[O-])c(O)c(C(C)C)c1.CC(C)c1cc(C(=O)[O-])c(O)c(C(C)C)c1.CC(C)c1cc(C(=O)[O-])c(O)c(C(C)C)c1.CC(C)c1cc(C(=O)[O-])c(O)c(C(C)C)c1.CC(C)c1cc(C(=O)[O-])c(O)c(C(C)C)c1.[Cu+2].[Mn+2].[Mn+2]
Output: 30.9 µM

Input: Also need C=C1C(=O)O[C@H]2[C@H]1CC/C(Cn1cc(-c3ccsc3)nn1)=C\CC[C@@]1(C)O[C@@H]21 , thanks.
Output: 1.06 µM

Input: Try this compound too: COCC(=O)NC/C=C/c1ccc2ncnc(Nc3ccc(Oc4ccc(C)nc4)c(C)c3)c2c1
Output: 3.31 µM

Input: What do you have for COc1cc2c(cc1OC)-c1ncc3cc(OC)c(OC)cc3c1C2 ?
Output: > 50 µM

Input: Repeat for the following compound: CN1CCN(Cc2ccc(NC(=O)c3cccc(C#Cc4c(N)ncc5ccc(F)cc45)c3)cc2C(F)(F)F)CC1
Output: 0.727 µM

Input: Would you kindly repeat that for CC(C)=CCc1c(O)c(C(=O)CC(C)C)c(O)c2c(-c3ccccc3)cc(=O)oc12 ?
Output: 11 µM

Input: Now this one: C[C@@]1(O)CCC[C@H]1n1c(=O)c(C(F)F)cc2cnc(NC3CCN(S(C)(=O)=O)CC3)nc21
Output: 3.45 µM

Input: Here is the next compound: CCCC(=O)Nc1c(I)cc(I)c(CC(CC)C(=O)O)c1I (stereo unspecified)
Output: > 100 µM

Input: Thanks! And CSC1SCC2C(=O)N(C)C(C(C)C)C(=O)OCC(NC(=O)c3cnc4ccccc4n3)C(=O)NC(C)C(=O)N(C)C1C(=O)N(C)C(C(C)C)C(=O)OCC(NC(=O)c1cnc3ccccc3n1)C(=O)NC(C)C(=O)N2C (stereo unspecified) ?
Output: < 0.001 µM

Input: How about this compound: CCCCCCC(O)C(O)CCC(O)C1CCC(CCCCC(O)CC2=CC(C)OC2=O)O1 (stereo unspecified)
Output: 17.1 µM

Input: Could you do the same for Cc1ccc(-n2c3c(c4c(CN)c(O)ccc42)CCc2ccccc2C3=O)cc1 , please?
Output: 13 µM

Input: Try the compound Cc1ccccc1C[P+](c1ccccc1)(c1ccccc1)c1ccccc1
Output: 23.6 µM

---

Give TGI for every item shown.
- Tested on: HCC-2998 colon
- Method: NCI tumour cell line growth inhibition, 48 h
Report only the number, with the unit µM understood.

Input: Data request, read-out TGI, for C=CC(C)(C)n1cc(C2=C(O)C(=O)C(c3c(CC=C(C)C)[nH]c4ccccc34)=C(O)C2=O)c2ccccc21
Output: 2.33

Input: Here is the next compound: CNC(=O)OCC1=C(COC(=O)NC)C(C)N(c2ccccc2)C1 (stereo not given)
Output: 80.3

Cited source: PubChem BioAssay (NCI)
